All values here come from paper PMC4288183.

- experimental-target: MNV RdRp (NS7) WT (Murine norovirus 1 strain CW1) (UniProt Q80J95)
- Sequence: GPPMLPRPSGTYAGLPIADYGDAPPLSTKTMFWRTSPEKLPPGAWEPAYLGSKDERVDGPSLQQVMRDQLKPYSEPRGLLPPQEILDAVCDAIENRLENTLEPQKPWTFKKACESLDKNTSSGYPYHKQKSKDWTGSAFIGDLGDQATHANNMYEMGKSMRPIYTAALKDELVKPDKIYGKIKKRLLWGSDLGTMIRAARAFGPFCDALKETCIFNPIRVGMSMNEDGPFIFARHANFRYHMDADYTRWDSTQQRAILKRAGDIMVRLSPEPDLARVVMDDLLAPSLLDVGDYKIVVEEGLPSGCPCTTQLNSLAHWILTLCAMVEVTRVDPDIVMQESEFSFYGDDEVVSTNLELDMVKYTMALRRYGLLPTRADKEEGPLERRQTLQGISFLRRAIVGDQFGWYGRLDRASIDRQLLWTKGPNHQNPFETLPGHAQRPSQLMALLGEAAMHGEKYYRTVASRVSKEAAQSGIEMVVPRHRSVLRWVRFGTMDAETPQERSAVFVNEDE
- assay-protocol: fluorescence polarization
- condition-details: FP: 10 mM Tris-HCl pH 8.0, 30 mM NaCl, 1% glycerol, 0.5 mM 2-mercaptoethanol, 0.1 uM fMps, temperature not stated; synthesis competition: 20 mM Na glutamate pH …
experimental-endpoint: Kd (nM)
The response must be a number in nM with no trailing unit.

q: Provide the documented Kd with MNV RdRp (NS7) WT (Murine norovirus 1 strain CW1) (UniProt Q80J95) as the system for GCGUCAUUCACAAAGACUGCUGAGCGUUCCUGCGGGGUCUCAGCAUCCAUU [fMps (6-FAM MNV subgenomic proscript)]
a: 500

---

The following sequences are listed with their measured pIC50 values.
- experimental-target: MNV RdRp (NS7) WT (Murine norovirus 1 strain CW1)
- Sequence: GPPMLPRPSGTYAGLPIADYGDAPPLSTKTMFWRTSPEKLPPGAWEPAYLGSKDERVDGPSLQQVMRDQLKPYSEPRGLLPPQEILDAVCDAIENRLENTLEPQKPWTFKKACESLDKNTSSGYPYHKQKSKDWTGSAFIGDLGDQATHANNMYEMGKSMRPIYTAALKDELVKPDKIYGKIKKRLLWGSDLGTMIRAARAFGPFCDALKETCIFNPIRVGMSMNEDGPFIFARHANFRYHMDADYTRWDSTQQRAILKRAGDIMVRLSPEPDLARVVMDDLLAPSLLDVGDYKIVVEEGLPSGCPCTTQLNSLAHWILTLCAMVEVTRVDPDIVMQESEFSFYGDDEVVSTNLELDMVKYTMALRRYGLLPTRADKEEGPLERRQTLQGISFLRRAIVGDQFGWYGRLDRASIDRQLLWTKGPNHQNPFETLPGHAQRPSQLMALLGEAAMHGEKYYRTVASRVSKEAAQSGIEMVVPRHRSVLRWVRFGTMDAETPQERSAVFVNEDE
- assay-protocol: fluorescence polarization competition
- condition-details: FP: 10 mM Tris-HCl pH 8.0, 30 mM NaCl, 1% glycerol, 0.5 mM 2-mercaptoethanol, 0.1 uM fMps, temperature not stated; synthesis competition: 20 mM Na glutamate pH …
In textbook form, pIC50 equals minus log to base ten of the concentration in mol/L.

>>> print(df.to_string())
                             input_sequence  value_reported
0  GCGUCAUUCACAAAGACUGCUGAGCGUUCCUGCGGGGUCUCAGCAUCCAUU [Mps (MNV subgenomic proscript)]            5.63

Could you now consider this next sequence?
q: Provide the documented pIC50 with MNV RdRp (NS7) WT (Murine norovirus 1 strain CW1) as the system for CUGCUGAGCGUUCCUGCGGGGUCUCAGCAU [Mhp (hairpin of Mps; also printed Mph)]
a: 4.79
